- Tested on: Vero E6
- Assay Summary: cell viability relative to DMSO; higher = less toxic
- Test Conditions: 72 h; 100 nM
Assignment: determine reported cell viability for the given molecules.
Answers are plain numbers, in %.

These recorded examples may help you get a feel for the data.
Cc1ccc(C(=O)N(CCCN)[C@@H](c2nc3cc(Cl)ccc3c(=O)n2Cc2ccccc2)C(C)C)cc1    42.4
NC(=O)C[S+]([O-])C(c1ccccc1)c1ccccc1 (configuration not stated)    96.2
CN(C)N(C)C(=O)[C@@]1(Cc2ccccc2)CCCN(C(=O)[C@@H](Cc2c[nH]c3ccccc23)NC(=O)C(C)(C)N)C1    101
C/C=C1/[C@H](O[C@@H]2O[C@H](CO)[C@@H](O)[C@H](O)[C@H]2O)OC=C(C(=O)OC)[C@H]1CC(=O)OCCc1ccc(O)c(O)c1    98.7
CCn1cc(C(=O)O)c(=O)c2cc3c(cc21)OCO3    109
COc1cc(O)c2c(c1)C(=O)c1cc(C)cc(O)c1C2=O    98.5

# context switch: different molecule, same cell viability
Entry under review: CN(C)[C@@H]1C(O)=C(C(N)=O)C(=O)[C@@]2(O)C(O)=C3C(=O)c4c(O)ccc(Cl)c4[C@@H](O)[C@H]3C[C@@H]12 . Reported cell viability?
110

----------
- System: A549-ACE2
- Assay Summary: drug-induced phospholipidosis relative to tamoxifen; higher = more phospholipidosis
- Test Conditions: 3.33333 µM; 72 h
Assignment: determine reported drug-induced phospholipidosis for the given compounds.
Answers are plain numbers, in %.

These recorded examples may help you get a feel for the data.
CNCc1ccc(C)c(NC(=O)c2ccc(Nc3nc(-c4ccccc4)c4ccccc4n3)cc2)c1    86.2
N=C(N)c1cc2ccc(OC(=O)c3cccs3)cc2s1 [BCX-1470]    -0.938
Nc1nccc(Oc2ccc(NC(=O)c3c[nH]cc(-c4ccc(F)cc4)c3=O)cc2F)c1Cl [metatinib]    2.59

# context switch: different compound, same drug-induced phospholipidosis
Entry under review: CCCCN1[C@@H]2CC[C@H]1C[C@@H](OC(c1ccc(F)cc1)c1ccc(F)cc1)C2 [JHW-007] . Reported drug-induced phospholipidosis?
61.5

----------
- Test system: Caco-2
- Assay Summary: cell viability relative to DMSO; higher = less toxic
- Test Conditions: 72 h; 1 nM
Assignment: determine reported cell viability for the given molecules.
One number for each entry, in %.

These recorded examples may help you get a feel for the data.
CN1CC[C@@H]2CN3CCc4cccc(c43)[C@@H]2C1    86.8
Cc1ncc([N+](=O)[O-])n1CC(O)CN1CCOCC1 (centres undefined)    103
COC(=O)C[C@](O)(CCCC(C)(C)O)C(=O)O[C@@H]1C(OC)=C[C@]23CCCN2CCc2cc4c(cc2[C@H]13)OCO4    99.3
Fc1ccc(C(c2ccccc2)(c2ccccc2F)n2ccnc2)cc1 (centres undefined)    122
Cn1cc(C2=C(c3ccc(Cl)cc3Cl)C(=O)NC2=O)c2ccccc21    105

# per-item lookup of cell viability; items listed below
1. COc1cccc(-c2cc(=O)c3ccccc3o2)c1N
2. CC(C)(CO)c1cc2cc(NC(=O)C3(c4ccc5c(c4)OC(F)(F)O5)CC3)c(F)cc2n1C[C@@H](O)CO
3. CC1(CN)Cc2ccccc2C1
4. CNC(=O)c1c(F)cccc1Nc1nc(Nc2cc3c(cc2OC)CCN3C(=O)CN(C)C)nc2[nH]ccc12

1: 98.5; 2: 101; 3: 93; 4: 103

----------
- Test system: HepG2
- Assay Summary: cell viability relative to DMSO; higher = less toxic
- Test Conditions: 72 h; 10 nM
Measurement Label: cell viability (%)
Numbers only, in %.

Nc1ncnc2c1ncn2[C@@H]1O[C@H](COP(=O)(O)O)[C@@H](O)[C@H]1O [adenosine-phosphate]    94.5
COc1cc(CN(CCN)C(=O)c2cccs2)ccc1OCc1ccccc1    96.5

# per-item lookup of cell viability; items listed below
1. CCOC(=O)c1ncn2c1[C@@H]1CCCN1C(=O)c1cc(OC)ccc1-2
2. Cc1cc(C(=O)Nc2cc(Oc3ccc4nc(NC(=O)C5CC5)cn4n3)ccc2C)n(C)n1
3. Fc1ccc(C(OCCN2CCN(C/C=C/c3ccccc3)CC2)c2ccc(F)cc2)cc1
4. CCCCC1(COC(=O)CCC(=O)O)C(=O)N(c2ccccc2)N(c2ccccc2)C1=O
5. C[C@]12CC[C@@H]3c4ccc(O)cc4CC[C@H]3[C@@H]1C[C@@H](O)[C@@H]2O
6. Cc1cc(O)c2c(c1)C(=O)c1cccc(O)c1C2=O
7. CC[N+](C)(CC)CCC[n+]1c(-c2ccccc2)c2cc(N)ccc2c2ccc(N)cc21 [propidium-iodide]

1: 100; 2: 95.5; 3: 101; 4: 99.5; 5: 103; 6: 104; 7: 104

# per-item lookup of cell viability; items listed below
1. O=C(Nc1ccc(F)cc1)N1CCc2ccccc2[C@@H]1c1ccc(C(F)(F)F)cc1
2. Cc1[nH]c(/C=C2\C(=O)Nc3cc(-c4ccccc4)ccc32)c(C)c1CCC(=O)O [SU16f]
3. Cc1c(C(=O)N2CCOc3ccc(-c4ccc(N)nc4)cc3C2)ccc(S(C)(=O)=O)c1F
4. CCC(COC(=O)c1cc(OC)c(OC)c(OC)c1)(c1ccccc1)N(C)C (configuration not stated)
5. CC[C@@H](CO)NC(=O)[C@@H]1C=C2c3cccc4[nH]cc(c34)C[C@H]2N(C)C1
6. CC(C)N(CCC(C(N)=O)(c1ccccc1)c1ccccn1)C(C)C (configuration not stated) [disopyramide]

109
95.1
115
104
102
86.8

# per-item lookup of cell viability; items listed below
1. C#C[C@]1(O)CC[C@H]2[C@@H]3CCC4=CC(=O)CC[C@]4(C)[C@H]3CC[C@@]21C
2. C[C@@H](c1nc(-c2ccc(C#N)cc2)cs1)[C@](O)(Cn1cncn1)c1ccc(F)cc1F
3. CCCCN1[C@@H]2CC[C@H]1C[C@@H](OC(c1ccc(F)cc1)c1ccc(F)cc1)C2
4. Nc1nc2[nH]cc(CCc3ccc(C(=O)N[C@@H](CCC(=O)O)C(=O)O)cc3)c2c(=O)[nH]1
5. CC(C)c1nc(CN(C)C(=O)N[C@H](C(=O)N[C@@H](Cc2ccccc2)C[C@H](O)[C@H](Cc2ccccc2)NC(=O)OCc2cncs2)C(C)C)cs1
6. Cc1ncc([N+](=O)[O-])n1CC(O)CN1CCOCC1 (configuration not stated)
7. Cc1cc(C)c(NC(=O)N(Cc2ccc3c(c2)Cc2ccccc2-3)C2CCCCCC2)c(C)c1

1. 102
2. 99.3
3. 95.1
4. 100
5. 104
6. 108
7. 93.5

----------
- Test system: HepG2
- Assay Summary: cell viability relative to DMSO; higher = less toxic
- Test Conditions: 72 h; 1000 nM
Assignment: determine reported cell viability for the given compounds.
Numbers only, in %.

N#Cc1cc(CN2CCC(Nc3ncnc4sc(Cl)cc34)CC2)ccc1F    78.6

# per-item lookup of cell viability; items listed below
1. CCc1cc(C(C)=O)c(O)cc1OCCCCCC(C)(C)c1nn[nH]n1
2. C=CC(=O)Nc1cccc(Oc2nc(Nc3ccc(N4CCN(C)CC4)cc3OC)ncc2Cl)c1

1: 88.4; 2: 104

# per-item lookup of cell viability; items listed below
1. Oc1cc2c(cc1O)CN(C(=S)NCCc1ccc(Cl)cc1)CCC2 [capsazepine]
2. CN(Cc1ccc(C(C)(C)C)cc1)Cc1cccc2ccccc12
3. OC(c1ccccc1)(c1ccccc1)C12CC[N+](CCOCc3ccccc3)(CC1)CC2
4. COC(=O)C(Cc1ccc(OCCn2c(=O)sc3cc(C(=O)c4ccccc4)ccc32)cc1)C(=O)OC
5. Cn1cc(C2=C(c3ccc(Cl)cc3Cl)C(=O)NC2=O)c2ccccc21
6. c1ccc2[nH]c(-c3cscn3)nc2c1
7. CC(C)c1nc(CN(C)C(=O)N[C@H](C(=O)N[C@@H](Cc2ccccc2)C[C@H](O)[C@H](Cc2ccccc2)NC(=O)OCc2cncs2)C(C)C)cs1

1. 100
2. 102
3. 97.1
4. 95.1
5. 95.1
6. 97.2
7. 107

# per-item lookup of cell viability; items listed below
1. COc1cc(O)c2c(c1)C(=O)c1cc(C)cc(O)c1C2=O
2. C/C(=N\c1ccccc1N)c1c(C)cc(=O)n(O)c1O
3. Cc1cc(C)c(NC(=O)N(Cc2ccc3c(c2)Cc2ccccc2-3)C2CCCCCC2)c(C)c1

1: 107; 2: 99.7; 3: 92.9

----------
- Tested on: Caco-2
- Assay Summary: cell viability relative to DMSO; higher = less toxic
- Test Conditions: 72 h; 10 nM
Measurement Label: cell viability (%)
One number for each entry, in %.

These recorded examples may help you get a feel for the data.
CN1CCCC(n2nc(Cc3ccc(Cl)cc3)c3ccccc3c2=O)CC1 (stereo not drawn)    91.2
Cc1sc2c(c1C)C(c1ccc(Cl)cc1)=N[C@@H](CC(=O)Nc1ccc(OCCOCCOCCOCCNc3cccc4c3C(=O)N(C3CCC(=O)NC3=O)C4=O)cc1)c1nnc(C)n1-2 (stereo partly drawn)    92.6

# per-item lookup of cell viability; items listed below
1. CN(Cc1ccc(C(C)(C)C)cc1)Cc1cccc2ccccc12
2. C#CC1(OCC(O)CN2CCN(c3cccc(C(F)(F)F)c3)CC2)CCCCC1 (stereo not drawn)

1: 101; 2: 92.2

# per-item lookup of cell viability; items listed below
1. CC(C)NC(=O)c1ccc(C#Cc2ccncc2)cn1
2. CCCCCCCC/C=C\CCCCCCCC(=O)N[C@@H](CO)Cc1ccc(O)cc1
3. COc1cc(CN(CCN)C(=O)c2cccs2)ccc1OCc1ccccc1
4. CN(C)[C@@H]1C(O)=C(C(N)=O)C(=O)[C@@]2(O)C(O)=C3C(=O)c4c(O)ccc(Cl)c4[C@@H](O)[C@H]3C[C@@H]12

[90.3, 94.4, 98.4, 95.9]

Hello, the source for this data is the supplement of paper PMC13380429, in case you need it.
